- TESTED ON: Recombinant human liver glucokinase (FLAG fusion protein) (Homo sapiens (Human), UniProt P35557)
- Sequence (P35557 other isoform, or with tags, fused parts or gaps): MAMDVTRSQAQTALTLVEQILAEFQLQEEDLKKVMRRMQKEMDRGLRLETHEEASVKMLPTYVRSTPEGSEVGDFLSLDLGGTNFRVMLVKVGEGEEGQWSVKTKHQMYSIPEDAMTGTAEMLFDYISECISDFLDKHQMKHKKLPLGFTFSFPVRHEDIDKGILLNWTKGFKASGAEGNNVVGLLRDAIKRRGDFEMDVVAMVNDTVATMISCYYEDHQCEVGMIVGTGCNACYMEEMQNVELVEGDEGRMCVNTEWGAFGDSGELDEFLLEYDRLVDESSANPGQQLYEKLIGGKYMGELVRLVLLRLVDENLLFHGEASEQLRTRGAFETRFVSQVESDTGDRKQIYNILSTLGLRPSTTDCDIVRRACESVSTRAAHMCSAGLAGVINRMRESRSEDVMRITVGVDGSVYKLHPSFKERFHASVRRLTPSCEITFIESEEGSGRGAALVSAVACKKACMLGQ
- MEASUREMENT NOTES: glucokinase (GK) activation assay, Thio-NADH formation coupled to G6PDH, absorbance at 405 nm
- Assay type: biochemical
- SETTINGS: 2.5 mM Glu; OD value of DMSO control regarded as 100%; read-out: Emax
For each record, write down the corresponding Emax.
Answers are plain numbers, in %.

Answered cases to consult:
CN1C(=O)CCC1c1cc2[nH]c(-c3ccc(C(=O)NCCC(=O)O)cn3)cc2cc1Oc1ccc(S(C)(=O)=O)nc1 (stereo not shown) [Example 8]: 501
CN1C(=O)CCC1c1cc2[nH]c(-c3ccc(CC(C)(C)C(=O)O)cn3)cc2cc1Oc1ccc(S(C)(=O)=O)nc1 (stereo not shown) [Example 17]: 643
CN1C(=O)CCC1c1cc2[nH]c(-c3ccccn3)cc2cc1Oc1ccc(CC(=O)O)cc1 (stereo not shown) [Example 27]: 630

Take each entry in turn and give its Emax.
1. CN1C(=O)CCC1c1cc2[nH]c(-c3nc(CC(=O)O)c(Cl)s3)cc2cc1Oc1ccc(S(C)(=O)=O)nc1 (stereo not shown) [Example 30]
2. CN1C(=O)CCC1c1cc2[nH]c(-c3ncc(CCC(=O)O)s3)cc2cc1Oc1ccc(S(C)(=O)=O)nc1 (stereo not shown) [Example 31]
3. CN1C(=O)CCC1c1cc2[nH]c(-c3ccc(OCC(=O)O)cn3)cc2cc1Oc1ccc(S(C)(=O)=O)nc1 (stereo not shown) [Example 18]
4. COC(=O)CCc1ccc(Oc2cc3cc(-c4ccccn4)[nH]c3cc2C2CCC(=O)N2C)cc1 (stereo not shown) [Example 26]

1. 506
2. 599
3. 612
4. 545
